# Test system: ATP;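 also: ATP exposure 15 min at 22 °C before imaging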
# ASSAY_OVERVIEW: switch fluorescence ratio, 500 uM ATP over buffer (Cy3 cluster intensity, sum of 5 cycles each) (fold (ratio)); higher = stronger signal-on switching upon ATP binding; sequences stand for … in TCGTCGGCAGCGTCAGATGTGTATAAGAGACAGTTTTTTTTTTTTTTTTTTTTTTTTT…TC
# CONDITIONS: aptamer strand: ATP DNA aptamer (quencher-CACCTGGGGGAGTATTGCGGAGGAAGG + anchor), 100 nM annealed; ATP concentration: 500 uM
Entry flag: T if switch fluorescence ratio reaches 1; F if it does not.

- ITEM_SEQUENCE: "TTGGACGTGT"
  MEASUREMENT_TARGET: "ATP"
  LABEL_CLASS: "F"
- ITEM_SEQUENCE: "GATTCGTGGC"
  MEASUREMENT_TARGET: "ATP"
  LABEL_CLASS: "F"
- ITEM_SEQUENCE: "TGGATTGGAT"
  MEASUREMENT_TARGET: "ATP"
  LABEL_CLASS: "T"
- ITEM_SEQUENCE: "TCCCGGGACA"
  MEASUREMENT_TARGET: "ATP"
  LABEL_CLASS: "T"
- ITEM_SEQUENCE: "TGAATGATTT"
  MEASUREMENT_TARGET: "ATP"
  LABEL_CLASS: "F"
- ITEM_SEQUENCE: "GAGTGCCGGG"
  MEASUREMENT_TARGET: "ATP"
  LABEL_CLASS: "T"

Recorded values, source the supplement of paper PMC10126150.
